target: human Phosphatase and Tensin Homolog (PTEN), PTEN (gene 5728); assay: NVS_ENZ_hPTEN: NovaScreen (NVS) Enzymatic Assay for human Phosphatase and Tensin Homolog (PTEN) (AID 2283203)
Inconclusive results are not listed. Calls of active or inactive are those of the source. The calls were made as follows: active = hit-call score of the fitted dose curve at least 0.9, where 1 is the maximum; inconclusive = response in the unintended direction; inactive = score below 0.9.
Thanks in advance; please answer with one of these: active, inactive

## Task Assay result, entry "O=C1C=CC(=O)O1" — outcome?
## Result inactive

## Task Assay result, entry "CCNc1nc(NC(C)(C)C)nc(OC)n1" — outcome?
## Result inactive

## Task Assay result, entry "Cc1nc(-c2ccccn2)ncc1C(=O)Nn1cc(C)c2cc(F)ccc21" — outcome?
## Result inactive

====

test: CCTE_Shafer_MEA_dev_LDH: CCTE's Lactate Dehydrogenase Assay for Cytotoxicity in the Neural Network Formation Assay, Shafer Lab (AID 2284068);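 also: exposure for twelve days from plating with re-dosing on DIV 5 and 9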
Inconclusive results are not listed. Activity calls are given as the source filed them. The calls were made as follows: active = hit-call score of the fitted dose curve at least 0.9, where 1 is the maximum; inconclusive = response in the unintended direction; inactive = score below 0.9.
Thanks in advance; please answer with one of these: true (1) = active, false (0) = inactive

> print(dat)
                molecule  assigned.label
1  [CH3][Sn]([CH3])[CH3]        true (1)

## Task Assay result, entry CCCCC(CC)COC(=O)c1cc(Br)c(Br)c(Br)c1Br (stereo not drawn) — outcome?
## Result true (1)

## Task Assay result, entry "C#CCN(C)[C@H](C)Cc1ccccc1" — outcome?
## Result false (0)

====

molecular target: human Retinoid X Receptor beta (RXRb), RXRB (gene 6257) (UniProt P28702); assay: ATG_RXRb_TRANS: Attagene TRANS-FACTORIAL HepG2 Assay for human Retinoid X Receptor beta (RXRb) (AID 2283013)
Sequence (P28702 whole entry, looked up): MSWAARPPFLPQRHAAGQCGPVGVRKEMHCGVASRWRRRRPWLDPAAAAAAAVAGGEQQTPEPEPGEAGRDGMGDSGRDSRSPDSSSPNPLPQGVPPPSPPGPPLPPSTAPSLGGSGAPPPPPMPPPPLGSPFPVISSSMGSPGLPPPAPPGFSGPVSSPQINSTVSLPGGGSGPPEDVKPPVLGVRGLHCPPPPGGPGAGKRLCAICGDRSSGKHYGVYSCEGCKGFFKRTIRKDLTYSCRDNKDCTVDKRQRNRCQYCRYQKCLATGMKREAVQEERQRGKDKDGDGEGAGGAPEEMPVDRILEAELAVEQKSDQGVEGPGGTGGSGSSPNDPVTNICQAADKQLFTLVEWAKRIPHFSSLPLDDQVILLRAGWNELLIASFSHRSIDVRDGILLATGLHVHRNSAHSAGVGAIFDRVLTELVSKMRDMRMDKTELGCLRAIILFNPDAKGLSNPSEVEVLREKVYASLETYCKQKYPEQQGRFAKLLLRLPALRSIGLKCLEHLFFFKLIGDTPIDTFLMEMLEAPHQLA
Results filed as inconclusive are left out. Calls of active or inactive are those of the source. The calls were made as follows: active = hit-call score of the fitted dose curve at least 0.9, where 1 is the maximum; inconclusive = response in the unintended direction; inactive = score below 0.9.
Thanks in advance; please answer with one of these: Y = active, N = inactive

> print(dat)
                                   molecule                                    system  assigned.label
1  CC(C)(c1cc(Cl)c(O)c(Cl)c1)c1cc(Cl)c(O)c(Cl)c1  human Retinoid X Receptor beta (RXRb), RXRB (gene 6257) (UniProt P28702)               Y
2   Cc1ccc(N(SC(F)(Cl)Cl)S(=O)(=O)N(C)C)cc1  human Retinoid X Receptor beta (RXRb), RXRB (gene 6257) (UniProt P28702)               N

Attention now turns to another entry.
## Task Assay result, entry "O=P(O)(Oc1ccccc1)Oc1ccccc1" — outcome?
## Result N

====

test: ATG_PPRE_CIS: Attagene CIS-FACTORIAL HepG2 Assay for human Peroxisome Proliferator-activated Response Element (PPRE) (AID 2282958); settings: HepG2 PPRE cis-element reporter, Attagene transcription factor profiling; actives raise or lower the signal
Activity calls are given as the source filed them. The calls were made as follows: active = hit-call score of the fitted dose curve at least 0.9, where 1 is the maximum; inactive = score below 0.9.
Thanks in advance; please answer with one of these: y = active, n = inactive

# example entries with known answers
> print(dat)
                                 compound  assigned.label
1  CCOC(=O)NC(=S)Nc1ccccc1NC(=S)NC(=O)OCC               n
2                             CC(C)(Cl)Cl               n

Attention now turns to another entry.
## Task Assay result, entry "CCOC(=O)N(C)N=O" — outcome?
## Result n

====

test: ATG_TA_CIS: Attagene CIS-FACTORIAL HepG2 Assay for human TA Basal Promoter (AID 2282964); details: HepG2 Attagene CIS-factorial TA basal promoter reporter; actives raise or lower the signal
Activity calls are given as the source filed them. The calls were made as follows: active = hit-call score of the fitted dose curve at least 0.9, where 1 is the maximum; inactive = score below 0.9.
Thanks in advance; please answer with one of these: 1.0 for active, 0.0 for inactive

> print(dat)
                                   compound  assigned.label
1  CCC(C)c1cc([N+](=O)[O-])cc([N+](=O)[O-])c1OC(=O)C=C(C)C (stereo not given)             1.0
2        CCCCCCC1CCOC1=O (stereo not given)             0.0
3              CC(C)COP(=O)(OCC(C)C)OCC(C)C             0.0
4                                 Nc1ccccc1             0.0
5                                N#CCCCCC#N             0.0
6                CNC(=O)Oc1cc(C)c(SC)c(C)c1             0.0

## Task Assay result, entry "CCc1cccc(C)c1N(C(=O)CCl)[C@@H](C)COC" — outcome?
## Result 0.0

## Task Assay result, entry "CCC[N+](=O)[O-]" — outcome?
## Result 0.0

## Task Assay result, entry "O=c1[nH]c(Cl)c(Cl)cc1Cl" — outcome?
## Result 0.0

## Task Assay result, entry "C=CC(=O)OC" — outcome?
## Result 0.0

## Task Assay result, entry "CC1(C)[C@H](C(=O)O[C@H](C#N)c2cccc(Oc3ccccc3)c2)[C@@H]1C=C(Br)Br" — outcome?
## Result 0.0

## Task Assay result, entry "CC(C)C(=O)Cl" — outcome?
## Result 0.0

====

target: human RAR-related Orphan Receptor beta (RORb), RORB (gene 6096); test: ATG_RORb_TRANS: Attagene TRANS-FACTORIAL HepG2 Assay for human RAR-related Orphan Receptor beta (RORb) (AID 2283010)
Inconclusive results are not listed. Calls of active or inactive are those of the source. The calls were made as follows: active = hit-call score of the fitted dose curve at least 0.9, where 1 is the maximum; inconclusive = response in the unintended direction; inactive = score below 0.9.
Thanks in advance; please answer with one of these: active, inactive

# example entries with known answers
> print(dat)
                                   compound  assigned.label
1                          c1ccc2c(c1)CCCC2        inactive
2                                  C=COCCCl        inactive
3                          O=C1C=CC(=O)C=C1        inactive
4                    CC1(C)C(=O)NC(=O)NC1=O        inactive
5                          CC(C)(C)C(=O)CCl        inactive
6  C[C@]12CC[C@H](O)C[C@H]1CC[C@@H]1[C@@H]2C[C@@H](O)[C@]2(C)[C@@H](C3=CC(=O)OC3)CC[C@]12O          active

## Task Assay result, entry "O=C(O)CCCc1ccc(N(CCCl)CCCl)cc1" — outcome?
## Result inactive

## Task Assay result, entry "C=C(Cl)CCl" — outcome?
## Result inactive

====

experiment: ATG_E_Box_CIS: Attagene CIS-FACTORIAL HepG2 Assay for human Enhancer Box (E-box) (AID 2282936); conditions: HepG2 E-box cis-reporter transcription, actives raise or lower the signal
Active and inactive are the calls of the source. How the source made its calls: active means hit-call score of the fitted dose curve at least 0.9, where 1 is the maximum; inactive means score below 0.9.
Thanks in advance; please answer with one of these: active, inactive

# example entries with known answers
> print(dat)
                                   compound  assigned.label
1  C=CC(=O)OCC(CC)CCCC (stereo unspecified)        inactive
2  c1cc(OCC2CO2)ccc1Cc1ccc(OCC2CO2)cc1 (stereo unspecified)          active
3                  [Cl-].[Cl-].[Cl-].[Yb+3]        inactive
4  O=[N+]([O-])c1cc([N+](=O)[O-])c2ccccc2c1          active
5  COc1ncc(F)c2nc(S(=O)(=O)Nc3c(F)cccc3F)nn12        inactive

## Task Assay result, entry "ClC1=C(Cl)[C@]2(Cl)[C@@H]3[C@@H](Cl)[C@H](Cl)C[C@@H]3[C@@]1(Cl)C2(Cl)Cl" — outcome?
## Result inactive

## Task Assay result, entry "Nc1c(Cl)c(Cl)c(Cl)c(Cl)c1Cl" — outcome?
## Result inactive

## Task Assay result, entry CCC(C)c1cc(C(C)(C)C)cc(-n2nc3ccccc3n2)c1O (stereo unspecified) — outcome?
## Result inactive

## Task Assay result, entry "CN(C)C(=O)C(c1ccccc1)c1ccccc1" — outcome?
## Result inactive

## Task Assay result, entry "C=CCc1ccc(OC(=O)Cc2ccccc2)c(OC)c1" — outcome?
## Result inactive

## Task Assay result, entry CCC(C)c1cc([N+](=O)[O-])cc([N+](=O)[O-])c1OC(=O)C=C(C)C (stereo unspecified) — outcome?
## Result active

====

target: Hypoxia-inducible factor 1-alpha (Homo sapiens); experiment: ATG_HIF1a_CIS: Attagene CIS-FACTORIAL HepG2 Assay for human Hypoxia Inducible Factor 1 (HIF1A) (AID 2282951); settings: HepG2 Attagene cis-factorial HIF1a reporter transcription; actives raise or lower the signal
Activity calls are given as the source filed them. Rule for the calls: active = hit-call score of the fitted dose curve at least 0.9, where 1 is the maximum; inactive = score below 0.9.
Thanks in advance; please answer with one of these: 1.0 (active), 0.0 (inactive)

> print(dat)
                                   compound  assigned.label
1                                   N#CCCCl             0.0
2               Nc1ccc(-c2ccc(N)c(N)c2)cc1N             0.0
3  C=CC(=O)OCC(CC)CCCC (stereo unspecified)             0.0
4                                ClCCCCCCCl             0.0
5  Oc1ccc(C2(c3ccc(O)cc3)c3ccccc3-c3ccccc32)cc1             1.0
6                          CC(C)(C)C(=O)CCl             1.0
7                           Oc1cc(Cl)ccc1Cl             0.0
8                          c1ccc2c(c1)CCCC2             0.0

## Task Assay result, entry "CC[N+](=O)[O-]" — outcome?
## Result 0.0

## Task Assay result, entry "C=CC(=O)OC" — outcome?
## Result 0.0

## Task Assay result, entry "O=C1C(Cl)=C(Cl)C(=O)C(Cl)=C1Cl" — outcome?
## Result 1.0

## Task Assay result, entry "CCNCC" — outcome?
## Result 0.0

## Task Assay result, entry CCC(C)c1cc([N+](=O)[O-])cc([N+](=O)[O-])c1OC(=O)C=C(C)C (stereo unspecified) — outcome?
## Result 0.0

## Task Assay result, entry CCCCCCC1CCOC1=O (stereo unspecified) — outcome?
## Result 0.0

## Task Assay result, entry "CC(=O)C=Cc1ccccc1" — outcome?
## Result 0.0

## Task Assay result, entry "COCC(=O)N(c1c(C)cccc1C)N1CCOC1=O" — outcome?
## Result 0.0
